Measured IC50 of individual entries
Target: EGFR^L858R (Homo sapiens, UniProt P00533, L858R)
Sequence (P00533 25-1210 L858R): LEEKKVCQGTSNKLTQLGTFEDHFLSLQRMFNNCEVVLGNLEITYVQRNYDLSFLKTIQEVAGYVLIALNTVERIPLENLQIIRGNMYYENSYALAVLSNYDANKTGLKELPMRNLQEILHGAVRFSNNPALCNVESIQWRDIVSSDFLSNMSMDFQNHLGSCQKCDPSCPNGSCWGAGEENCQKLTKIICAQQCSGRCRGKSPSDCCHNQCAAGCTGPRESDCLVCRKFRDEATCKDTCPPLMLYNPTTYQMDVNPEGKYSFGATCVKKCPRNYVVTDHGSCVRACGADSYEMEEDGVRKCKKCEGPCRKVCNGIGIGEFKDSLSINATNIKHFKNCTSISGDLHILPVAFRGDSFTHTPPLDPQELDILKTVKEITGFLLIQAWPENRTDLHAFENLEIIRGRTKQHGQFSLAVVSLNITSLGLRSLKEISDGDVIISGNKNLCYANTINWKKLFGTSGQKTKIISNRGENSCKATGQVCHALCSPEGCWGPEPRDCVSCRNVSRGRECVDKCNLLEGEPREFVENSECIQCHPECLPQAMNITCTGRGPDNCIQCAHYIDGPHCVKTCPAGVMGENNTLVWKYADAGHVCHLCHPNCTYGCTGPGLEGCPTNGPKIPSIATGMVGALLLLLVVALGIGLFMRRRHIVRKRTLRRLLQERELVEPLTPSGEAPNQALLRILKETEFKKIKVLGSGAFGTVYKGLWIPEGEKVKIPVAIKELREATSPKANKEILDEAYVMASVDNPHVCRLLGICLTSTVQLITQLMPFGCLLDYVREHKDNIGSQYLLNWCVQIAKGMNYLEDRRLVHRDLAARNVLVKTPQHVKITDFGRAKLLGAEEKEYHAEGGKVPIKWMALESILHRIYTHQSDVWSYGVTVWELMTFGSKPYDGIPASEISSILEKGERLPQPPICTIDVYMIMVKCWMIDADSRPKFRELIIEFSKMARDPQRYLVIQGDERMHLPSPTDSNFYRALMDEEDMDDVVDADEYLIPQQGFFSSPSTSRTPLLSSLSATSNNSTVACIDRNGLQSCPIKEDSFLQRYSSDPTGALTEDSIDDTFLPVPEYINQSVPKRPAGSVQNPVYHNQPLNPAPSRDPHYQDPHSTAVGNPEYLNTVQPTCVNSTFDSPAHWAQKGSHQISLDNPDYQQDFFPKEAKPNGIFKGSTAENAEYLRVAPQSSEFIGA
Test: HTRF KinEASE-TK in vitro kinase assay, EGFR L858R (L)
Conditions: EGFR L858R kinase inhibition

Here's what some known entries look like.
C[C@H]1CCOc2c(cnn2C)-c2nccc(n2)Nc2cc(c(-c3cccc(CN4CCN(C)CC4)c3)cn2)O1 : < 50 nM
C[C@H]1CCOc2c(cnn2C)-c2nccc(n2)Nc2cc(c(-c3cc(CN4CCN(C)CC4)n(C)c3)cn2)O1 : < 50 nM
COc1cc(-c2cnc3cc2O[C@@H](C)CCOc2c(cnn2C)-c2nccc(n2)N3)ccc1CN1CCN(C)CC1 : < 50 nM

We next turn to a different compound, shown below.
Memo: C[C@H]1CCOc2c(cnn2C)-c2nccc(n2)Nc2cc(c(-c3cn(C4CC4)nc3OCCF)cn2)O1 , reported IC50: < 50 nM
